- System: OCI-AML5 cells expressing shRNAs targeting CDK1, 2, 4, 7, 9, cyclin K
- test-details: Dose response in OCI-AML5 expressing shRNAs targeting CDK1, 2, 4, 7, 9, cyclin K or control
- Type: cell-based, H. sapiens
- experimental-conditions: OCI-AML5 expressing shRNA CDK9; read-out: IC50 shRNA CDK9
parameter-measured: IC50 (µM)

Some compounds with known IC50 results, for comparison:
O=C(Cc1ccccc1)Nc1ncc(SCc2cccnc2)s1 [UOM-005190] : 1.66
O=C(Cc1ccc(CNC(=O)OCC2c3ccccc3-c3ccccc32)cc1)Nc1ncc(SCc2cccnc2)s1 [UOM-005432] : 0.391

a. CC(C)(C)OC(=O)N1CCC(C(=O)Nc2ncc(SCc3cccnc3)s2)CC1 [UOM-005205]
b. COc1ccc2cc([C@H](C)C(=O)Nc3ncc(SCc4cccnc4)s3)ccc2c1 [UOM-005431]
-- ask Exercise: compare a and b ; which one has the greater IC50? Answer format: the label of the selected item.
-- reply a

----------
- target-or-test-system: CDK1 (Homo sapiens)
- Construct: purchased BPS Bioscience 79597
- Sequence (P06493 whole entry): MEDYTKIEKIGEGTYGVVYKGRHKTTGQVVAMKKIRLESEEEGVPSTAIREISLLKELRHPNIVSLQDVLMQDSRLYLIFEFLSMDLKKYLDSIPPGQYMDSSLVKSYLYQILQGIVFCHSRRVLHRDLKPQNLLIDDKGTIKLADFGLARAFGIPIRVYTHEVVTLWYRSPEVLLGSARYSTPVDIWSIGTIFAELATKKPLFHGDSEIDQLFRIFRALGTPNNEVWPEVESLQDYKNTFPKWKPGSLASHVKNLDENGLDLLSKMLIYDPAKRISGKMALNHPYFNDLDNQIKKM
- Sequence (P14635 whole entry partner): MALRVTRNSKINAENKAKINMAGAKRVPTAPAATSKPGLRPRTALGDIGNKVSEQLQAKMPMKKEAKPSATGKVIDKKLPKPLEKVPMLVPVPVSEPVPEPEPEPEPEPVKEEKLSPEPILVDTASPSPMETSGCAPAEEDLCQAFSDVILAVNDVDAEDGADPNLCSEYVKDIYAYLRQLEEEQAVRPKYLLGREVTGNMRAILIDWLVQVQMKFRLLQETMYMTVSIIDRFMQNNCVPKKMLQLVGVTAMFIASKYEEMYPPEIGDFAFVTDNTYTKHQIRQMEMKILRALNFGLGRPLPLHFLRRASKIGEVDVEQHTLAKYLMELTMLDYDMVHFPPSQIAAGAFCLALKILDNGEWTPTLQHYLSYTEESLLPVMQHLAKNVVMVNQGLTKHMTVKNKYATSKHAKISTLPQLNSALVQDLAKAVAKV
- test-details: CDK1 in vitro kinase activity, single concentration 1 μM
- Assay type: biochemical
- experimental-conditions: single concentration 1 μM
parameter-measured: inhibition at 1 µM (%)

Some compounds with known inhibition at 1 µM results, for comparison:
Cn1cc(-n2cnc3c(NCc4nc5cc(Cl)c(Cl)cc5[nH]4)nc(N4CCOCC4)nc32)cn1 : 0
CC(C)(C)c1cnc(CSc2cnc(NC(=O)C3CCNCC3)s2)o1 : 77
CC(C)(C)OC(=O)N1CCC(CC(=O)Nc2ncc(SCc3cccnc3)s2)C1 (stereo not drawn) : 46
O=C(Cc1ccc(N2CCCC2)cc1)Nc1ncc(SCc2cccnc2)s1 : 63
Cc1ccc(CC(=O)Nc2ncc(SCc3cccnc3)s2)cc1 : 65
O=C(Cc1ccc(F)cc1)Nc1ncc(SCc2cccnc2)s1 : 59
O=C(Cc1ccc(-c2ccncc2)cc1)Nc1ncc(SCc2cccnc2)s1 : 35
O=C(Cc1ccc(I)cc1)Nc1ncc(SCc2cccnc2)s1 : 87
CC(=O)N[C@@H]1CCC[C@H](C(=O)Nc2cc(-c3cnn4c3CC(C)(C)C4)c(Cl)cn2)C1 [AZD4573, reference compound] : 90
O=C(Cc1ccc(Br)cc1)Nc1ncc(SCc2cccnc2)s1 : 60

I. O=C(Cc1cccnc1)Nc1ncc(SCc2cccnc2)s1
II. CC(=O)Nc1ccc(CC(=O)Nc2ncc(SCc3cccnc3)s2)cc1
III. O=C(Cc1ccc(-c2ccccc2)cc1)Nc1ncc(SCc2cccnc2)s1
IV. CC(=O)N1CCN(c2ccc(CC(=O)Nc3ncc(SCc4cccnc4)s3)cc2)CC1
-- ask Arrange the 4 compounds by rising inhibition at 1 µM, starting with the smallest. Please write the labels in the order that was asked for.
-- reply III, IV, II, I
(III: 25%, IV: 43%, II: 70%, I: 100%)

P. O=C(Cc1ccc(Cl)cc1)Nc1ncc(SCc2cccnc2)s1
Q. O=C(Cc1ccc(NC(=O)c2cccnc2)cc1)Nc1ncc(SCc2cccnc2)s1
-- ask Exercise: compare P and Q ; which one has the greater inhibition at 1 µM? Answer format: the label of the selected item.
-- reply Q

----------
- Tested on: primary AML specimens
- test-details: Dose-response assays in primary AML specimens (6 days, CellTiterGlo)
- Assay type: cell-based, human
- experimental-conditions: Homo sapiens, 144 h, primary AML specimen 08H021; 6 days; read-out: IC50
parameter-measured: pIC50
pIC50 is a log-scale quantity: -log10 of the concentration expressed in molar.

Some compounds with known pIC50 results, for comparison:
CN(C)c1ccc(CC(=O)Nc2ncc(SCc3cccnc3)s2)cc1 : 5.99
CC(C)(C)c1cnc(CSc2cnc(NC(=O)C3CCNCC3)s2)o1 : 7.04
Cn1cc(-n2cnc3c(NCc4nc5cc(Cl)c(Cl)cc5[nH]4)nc(N4CCOCC4)nc32)cn1 : 7.53

Okay, next one:
In plain terms, "CN(C)C/C=C/C(=O)Nc1ccc(C(=O)N2CCC[C@@H](Nc3ncc(Cl)c(-c4c[nH]c5ccccc45)n3)C2)cc1" has a documented pIC50 of 7.56
